Below, each of the variants is paired with its reported abundance fitness value.
B1: Ventral anterior homeobox 1, residues 102 to 157; numbered along this chain, Q5SQQ9 (parent)
chain: RTRTSFTAEQLYRLEMEFQRCQYVVGRERTELARQLNLSETQVKVWFQNRRTKQKK

- Variants of: B1
- assay notes: abundance fitness (aPCA) (normalised: wild type 0, dead -1); higher = more abundant; growth selection in yeast, the domain comes from the species named
- experimental conditions: Homo sapiens
Please give only the number in your answer, with no unit.

Worked cases, abundance fitness given:
| sequence change | abundance fitness |
| --- | --- |
| K56H | -0.159 |
| A33V | -0.786 |
| E28V | -0.419 |
| K53I | -0.02 |
| F47V | -0.787 |

Note: attention shifts to another entry.
Ask | Dear colleague, I am looking for the recorded abundance fitness of the following variant: Q48S
Reply | -0.111
